Exercise: state measured log10 Ki for each of the molecules provided.
Target: serotonin transporter (Rattus norvegicus, UniProt P31652)
Construct: displace ^3H-paroxetine from male rat cortical membranes; from tissue; host or cells: male rat cortical membranes
Sequence (P31652 whole entry): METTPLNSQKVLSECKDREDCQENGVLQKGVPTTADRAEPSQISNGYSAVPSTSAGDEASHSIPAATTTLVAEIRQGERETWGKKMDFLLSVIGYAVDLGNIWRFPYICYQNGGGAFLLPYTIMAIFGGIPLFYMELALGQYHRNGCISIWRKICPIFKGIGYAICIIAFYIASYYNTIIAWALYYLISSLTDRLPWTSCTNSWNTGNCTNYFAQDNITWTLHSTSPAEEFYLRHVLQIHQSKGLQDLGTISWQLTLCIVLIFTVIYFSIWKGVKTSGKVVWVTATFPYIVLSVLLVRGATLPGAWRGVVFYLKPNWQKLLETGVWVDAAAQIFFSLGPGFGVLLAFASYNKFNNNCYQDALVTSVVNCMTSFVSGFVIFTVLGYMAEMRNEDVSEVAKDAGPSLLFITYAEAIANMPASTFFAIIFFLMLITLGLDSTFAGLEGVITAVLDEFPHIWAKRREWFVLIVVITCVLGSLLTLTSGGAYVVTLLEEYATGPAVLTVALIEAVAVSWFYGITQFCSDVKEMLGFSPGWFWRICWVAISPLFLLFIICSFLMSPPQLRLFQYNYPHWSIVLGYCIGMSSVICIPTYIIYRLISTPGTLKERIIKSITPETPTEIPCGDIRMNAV
Assay: 5-HT transporter affinity: displacement of 3H-paroxetine from male rat cortical membranes
Assay type: binding
Details: displacement of 3H-paroxetine; male rat cortical membranes; read-out: 5-HT Transporter Affinity Ki
A difference of one corresponds to tenfold Ki; all values are log10 with Ki in nM.

Please review the entries below; each comes with its answer.
{"columns": ["molecule", "log10 Ki"],
 "data": [
  ["CCN(CCCCn1ccc2ccc(F)cc21)C1COc2c(F)ccc(C(N)=O)c2C1 (stereo not shown)", 1.19],
  ["CCN(CCc1coc2c(OC)cccc12)C1COc2c(F)ccc(C(N)=O)c2C1 (stereo not shown)", 2.89],
  ["NC(=O)c1ccc(F)c2c1CC(NCCCc1c[nH]c3ccc(Cl)cc13)CO2 (stereo not shown)", 1.84],
  ["NC(=O)c1ccc(F)c2c1CC(NCCCc1c[nH]c3ccc(F)cc13)CO2 (stereo not shown) [Compound 1]", 0.85],
  ["O=C(O)c1ccc(F)c2c1CC(N(CCCc1c[nH]c3ccc(F)cc13)C1CCC1)CO2 (stereo not shown)", 2.70],
  ["CCCN(C(C)CCCc1c[nH]c2ccc(F)cc12)C1COc2c(F)ccc(C(N)=O)c2C1 (single isomer, unassigned; (-)) [Compound 14b]", 0.98]
]}

The measured log10 Ki associated with CCCN(CC1CCc2[nH]c3ccc(F)cc3c2C1)[C@H]1COc2c(F)ccc(C(N)=O)c2C1 (single isomer, unassigned; (+)) [Compound 177b] reads 2.26
